- Tested System: Alpha-1B adrenergic receptor (Rattus norvegicus)
- Sequence (whole entry): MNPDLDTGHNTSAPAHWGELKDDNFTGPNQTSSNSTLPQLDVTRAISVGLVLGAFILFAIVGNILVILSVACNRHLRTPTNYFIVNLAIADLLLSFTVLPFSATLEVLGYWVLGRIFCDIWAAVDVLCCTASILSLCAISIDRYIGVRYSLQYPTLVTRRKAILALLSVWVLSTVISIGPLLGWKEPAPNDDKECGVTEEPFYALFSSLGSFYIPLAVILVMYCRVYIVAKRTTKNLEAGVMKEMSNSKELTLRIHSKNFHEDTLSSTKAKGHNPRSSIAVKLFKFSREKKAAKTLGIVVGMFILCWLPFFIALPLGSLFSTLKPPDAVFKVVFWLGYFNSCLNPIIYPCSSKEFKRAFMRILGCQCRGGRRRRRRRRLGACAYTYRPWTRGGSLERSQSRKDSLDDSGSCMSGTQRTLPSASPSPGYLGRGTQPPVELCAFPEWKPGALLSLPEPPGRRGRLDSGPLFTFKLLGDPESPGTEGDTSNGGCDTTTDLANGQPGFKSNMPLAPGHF
- Assay Name: Antagonist activity at alpha1B adrenergic receptor in Wistar rat spleen assessed as inhibition of phenylephrine-induced contraction incubated for 30 mins in presence of beta-adrenoceptor blocker propranolol hydrochloride
- Assay type: functional
Parameter: pKb

For this compound ( COc1cc2nc(N3CCN(C(=O)OCc4ccccc4)[C@H]4CCCC[C@H]43)nc(N)c2cc1OC ), measured pKb is 8.77

For this compound ( COc1cc2nc(N3CCN(C(=O)c4ccco4)[C@H]4CCCC[C@H]43)nc(N)c2cc1OC [CYCLAZOSIN] ), measured pKb is 8.86

For this compound ( CCCN(CCC)c1nc(N2CCN(C(=O)c3ccco3)[C@H]3CCCC[C@H]32)nc2cc(OC)c(OC)cc12 ), measured pKb is 7.86

For this compound ( COc1cc2nc(N3CCN(C(=O)Cc4ccc5ccccc5c4)[C@H]4CCCC[C@H]43)nc(N)c2cc1OC ), measured pKb is 8.05

For this compound ( CCCCCC(=O)N1CCN(c2nc(N)c3cc(OC)c(OC)cc3n2)[C@@H]2CCCC[C@@H]21 ), measured pKb is 7.99
